- System: TNK1
- Test Protocol: KINOMEscan kinase binding assay
- Test Settings: at 1 μM
# % Ctrl annotations

Smiles: Cc1cc2c([nH]1)/C=C1\C(=O)Nc3c(Cl)cc(cc31)-c1cn(C)nc1COC[C@@H](C)NC2=O
Units Label: %
% Ctrl: 94
//
Smiles: Cc1cc2c([nH]1)/C=C1\C(=O)Nc3c(Cl)cc(cc31)-c1cn(C)nc1COC[C@@H](C)N(C)C2=O
Units Label: %
% Ctrl: 91
//
Smiles: Cc1cc2c([nH]1)/C=C1\C(=O)Nc3ccc(cc31)-c1c(nn(C)c1C)COCCN(C)C2=O
Units Label: %
% Ctrl: 92
//
Smiles: Cc1cc2c([nH]1)/C=C1\C(=O)Nc3ccc(cc31)-c1c(nn(C)c1C)OCCCN(C)C2=O
Units Label: %
% Ctrl: 100
//
Smiles: C[C@@H]1COCc2nn(C)cc2-c2cc(Cl)c3c(c2)/C(=C/c2[nH]ccc2C(=O)N1)C(=O)N3
Units Label: %
% Ctrl: 94

* * *

- System: ALK
- Test Protocol: KINOMEscan kinase binding assay
- Test Settings: at 1 μM

Smiles: Cc1cc2c([nH]1)/C=C1\C(=O)Nc3c(Cl)cc(cc31)-c1cn(C)nc1COC[C@@H](C)N(C)C2=O
% Ctrl / %: 71
//
Smiles: Cc1cc2c([nH]1)/C=C1\C(=O)Nc3ccc(cc31)-c1c(nn(C)c1C)COCCN(C)C2=O
% Ctrl / %: 100
//
Smiles: Cc1cc2c([nH]1)/C=C1\C(=O)Nc3ccc(cc31)-c1c(nn(C)c1C)OCCCN(C)C2=O
% Ctrl / %: 87
//
Smiles: C[C@@H]1COCc2nn(C)cc2-c2cc(Cl)c3c(c2)/C(=C/c2[nH]ccc2C(=O)N1)C(=O)N3
% Ctrl / %: 100
//
Smiles: Cc1cc2c([nH]1)/C=C1\C(=O)Nc3c(Cl)cc(cc31)-c1cn(C)nc1COC[C@@H](C)NC2=O
% Ctrl / %: 100

* * *

Form field: % Ctrl (one value per entry).
- Tested on: INSR
- Test Protocol: KINOMEscan kinase binding assay
- Test Settings: at 1 μM
Measured Endpoint: % Ctrl (%)

Compound: Cc1cc2c([nH]1)/C=C1\C(=O)Nc3ccc(cc31)-c1c(nn(C)c1C)COCCN(C)C2=O [Cpd. 2]
Measured Target: INSR
Measured Endpoint: % Ctrl
Readout Number: 100

Compound: Cc1cc2c([nH]1)/C=C1\C(=O)Nc3ccc(cc31)-c1c(nn(C)c1C)OCCCN(C)C2=O [Cpd. 1]
Measured Target: INSR
Measured Endpoint: % Ctrl
Readout Number: 95

Compound: Cc1cc2c([nH]1)/C=C1\C(=O)Nc3c(Cl)cc(cc31)-c1cn(C)nc1COC[C@@H](C)N(C)C2=O [Cpd. 5]
Measured Target: INSR
Measured Endpoint: % Ctrl
Readout Number: 94

Compound: Cc1cc2c([nH]1)/C=C1\C(=O)Nc3c(Cl)cc(cc31)-c1cn(C)nc1COC[C@@H](C)NC2=O [Cpd. 3]
Measured Target: INSR
Measured Endpoint: % Ctrl
Readout Number: 78

Compound: C[C@@H]1COCc2nn(C)cc2-c2cc(Cl)c3c(c2)/C(=C/c2[nH]ccc2C(=O)N1)C(=O)N3 [Cpd. 4]
Measured Target: INSR
Measured Endpoint: % Ctrl
Readout Number: 81

* * *

- System: TYRO3
- Test Protocol: KINOMEscan kinase binding assay
- Test Settings: at 1 μM
- Protocol: Kinase binding assays were performed at Eurofins/DiscoveRx using the general KINOMEscan Protocol (Fabian, M. A. et al., “A small molecule-kinase interaction map for clinical kinase inhibitors,” Nat. Biotechnol. 2005, 23(3):329-36). […] The kinase concentration in the eluates was measured by qPCR. […] Dissociation constants (Kds) for test compound-kinase interactions were calculated by measuring the amount of kinase captured on the solid support as a function of the test compound concentration.
Recorded % Ctrl, one value per entry.

Molecule: Cc1cc2c([nH]1)/C=C1\C(=O)Nc3ccc(cc31)-c1c(nn(C)c1C)OCCCN(C)C2=O [Cpd. 1]
% Ctrl / %: 100
--
Molecule: Cc1cc2c([nH]1)/C=C1\C(=O)Nc3c(Cl)cc(cc31)-c1cn(C)nc1COC[C@@H](C)N(C)C2=O [Cpd. 5]
% Ctrl / %: 84
--
Molecule: Cc1cc2c([nH]1)/C=C1\C(=O)Nc3ccc(cc31)-c1c(nn(C)c1C)COCCN(C)C2=O [Cpd. 2]
% Ctrl / %: 100
--
Molecule: C[C@@H]1COCc2nn(C)cc2-c2cc(Cl)c3c(c2)/C(=C/c2[nH]ccc2C(=O)N1)C(=O)N3 [Cpd. 4]
% Ctrl / %: 97
--
Molecule: Cc1cc2c([nH]1)/C=C1\C(=O)Nc3c(Cl)cc(cc31)-c1cn(C)nc1COC[C@@H](C)NC2=O [Cpd. 3]
% Ctrl / %: 94

* * *

- System: RET
- Test Protocol: KINOMEscan kinase binding assay
- Test Settings: at 1 μM

Compound: Cc1cc2c([nH]1)/C=C1\C(=O)Nc3c(Cl)cc(cc31)-c1cn(C)nc1COC[C@@H](C)N(C)C2=O [Cpd. 5]
Measured Target: RET
% Ctrl: 95%

Compound: Cc1cc2c([nH]1)/C=C1\C(=O)Nc3c(Cl)cc(cc31)-c1cn(C)nc1COC[C@@H](C)NC2=O [Cpd. 3]
Measured Target: RET
% Ctrl: 96%

Compound: Cc1cc2c([nH]1)/C=C1\C(=O)Nc3ccc(cc31)-c1c(nn(C)c1C)OCCCN(C)C2=O [Cpd. 1]
Measured Target: RET
% Ctrl: 94%

Compound: Cc1cc2c([nH]1)/C=C1\C(=O)Nc3ccc(cc31)-c1c(nn(C)c1C)COCCN(C)C2=O [Cpd. 2]
Measured Target: RET
% Ctrl: 90%

Compound: C[C@@H]1COCc2nn(C)cc2-c2cc(Cl)c3c(c2)/C(=C/c2[nH]ccc2C(=O)N1)C(=O)N3 [Cpd. 4]
Measured Target: RET
% Ctrl: 100%

* * *

- Test system: EGFR(L747-S752del, P753S)
- Test Protocol: KINOMEscan kinase binding assay
- Test Settings: at 1 μM
- Method: Kinase binding assays were performed at Eurofins/DiscoveRx using the general KINOMEscan Protocol (Fabian, M. A. et al., “A small molecule-kinase interaction map for clinical kinase inhibitors,” Nat. Biotechnol. 2005, 23(3):329-36). […] The kinase concentration in the eluates was measured by qPCR. […] Dissociation constants (Kds) for test compound-kinase interactions were calculated by measuring the amount of kinase captured on the solid support as a function of the test compound concentration.
Catalogue of compounds with associated % Ctrl

Compound: C[C@@H]1COCc2nn(C)cc2-c2cc(Cl)c3c(c2)/C(=C/c2[nH]ccc2C(=O)N1)C(=O)N3 [Cpd. 4]
Units Label: %
% Ctrl: 90
//
Compound: Cc1cc2c([nH]1)/C=C1\C(=O)Nc3ccc(cc31)-c1c(nn(C)c1C)COCCN(C)C2=O [Cpd. 2]
Units Label: %
% Ctrl: 100
//
Compound: Cc1cc2c([nH]1)/C=C1\C(=O)Nc3c(Cl)cc(cc31)-c1cn(C)nc1COC[C@@H](C)NC2=O [Cpd. 3]
Units Label: %
% Ctrl: 90
//
Compound: Cc1cc2c([nH]1)/C=C1\C(=O)Nc3c(Cl)cc(cc31)-c1cn(C)nc1COC[C@@H](C)N(C)C2=O [Cpd. 5]
Units Label: %
% Ctrl: 86
//
Compound: Cc1cc2c([nH]1)/C=C1\C(=O)Nc3ccc(cc31)-c1c(nn(C)c1C)OCCCN(C)C2=O [Cpd. 1]
Units Label: %
% Ctrl: 100

* * *

- Tested on: KIT(V559D, T670I)
- Test Protocol: KINOMEscan kinase binding assay
- Test Settings: at 1 μM

Smiles: Cc1cc2c([nH]1)/C=C1\C(=O)Nc3c(Cl)cc(cc31)-c1cn(C)nc1COC[C@@H](C)N(C)C2=O
% Ctrl [%]: 95
//
Smiles: Cc1cc2c([nH]1)/C=C1\C(=O)Nc3ccc(cc31)-c1c(nn(C)c1C)OCCCN(C)C2=O
% Ctrl [%]: 93
//
Smiles: C[C@@H]1COCc2nn(C)cc2-c2cc(Cl)c3c(c2)/C(=C/c2[nH]ccc2C(=O)N1)C(=O)N3
% Ctrl [%]: 94
//
Smiles: Cc1cc2c([nH]1)/C=C1\C(=O)Nc3ccc(cc31)-c1c(nn(C)c1C)COCCN(C)C2=O
% Ctrl [%]: 82
//
Smiles: Cc1cc2c([nH]1)/C=C1\C(=O)Nc3c(Cl)cc(cc31)-c1cn(C)nc1COC[C@@H](C)NC2=O
% Ctrl [%]: 100

* * *

- System: LCK
- Test Protocol: KINOMEscan kinase binding assay
- Test Settings: at 1 μM
Threshold check on % Ctrl: strictly below 90% is satisfied; on or above 90% is not satisfied.

Smiles: Cc1cc2c([nH]1)/C=C1\C(=O)Nc3c(Cl)cc(cc31)-c1cn(C)nc1COC[C@@H](C)N(C)C2=O
Measured Target: LCK
Class Label: not satisfied
--
Smiles: Cc1cc2c([nH]1)/C=C1\C(=O)Nc3c(Cl)cc(cc31)-c1cn(C)nc1COC[C@@H](C)NC2=O
Measured Target: LCK
Class Label: satisfied
--
Smiles: Cc1cc2c([nH]1)/C=C1\C(=O)Nc3ccc(cc31)-c1c(nn(C)c1C)COCCN(C)C2=O
Measured Target: LCK
Class Label: not satisfied
--
Smiles: Cc1cc2c([nH]1)/C=C1\C(=O)Nc3ccc(cc31)-c1c(nn(C)c1C)OCCCN(C)C2=O
Measured Target: LCK
Class Label: not satisfied
